# MEASURED_TARGET: UniProt:P29274
# ASSAY_DETAILS: A2a binding affinity using radioligand binding, Method (A)
# COND: Method (A): [3H]SCH58261 filtration binding
Note that class boundaries on IC50 are bin 0 = under 5 nM, bin 1 = from 5 nM up to 40 nM, bin 2 = 40 nM and over

Which class is correct for the following molecule? Cc1c(F)cccc1-c1nc(N)c2nc(Cc3ccccc3)nn2c1C
bin 2

====

# MEASURED_TARGET: human A2a adenosine receptor (Homo sapiens (Human))
# Sequence (P29274 whole entry): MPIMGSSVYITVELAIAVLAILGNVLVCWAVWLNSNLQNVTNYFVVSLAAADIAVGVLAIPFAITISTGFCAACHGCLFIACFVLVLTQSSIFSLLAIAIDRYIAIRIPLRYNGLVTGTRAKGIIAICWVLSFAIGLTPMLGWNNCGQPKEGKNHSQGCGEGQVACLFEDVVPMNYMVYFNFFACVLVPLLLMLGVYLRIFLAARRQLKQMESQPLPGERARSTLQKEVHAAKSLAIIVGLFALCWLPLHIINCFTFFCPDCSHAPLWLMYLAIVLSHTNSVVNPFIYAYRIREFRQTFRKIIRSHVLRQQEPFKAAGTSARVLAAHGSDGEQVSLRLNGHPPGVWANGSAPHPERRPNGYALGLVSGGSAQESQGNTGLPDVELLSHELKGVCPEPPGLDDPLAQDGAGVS
# ASSAY_DETAILS: A2a binding affinity using radioligand binding, Method (A)
# COND: Method (A): [3H]SCH58261 filtration binding
Reported pIC50 values for the following compounds.
pIC50 here: minus log base 10 of the concentration, concentration in moles per litre.

>  <COMPOUND>
Cc1c(-c2cc(F)c(F)c(F)c2)nc(N)c2nc(Cc3ccccc3)nn12 [Example 3.36]

>  <PROPERTY_LABEL>
pIC50

>  <QUANTITATIVE_READOUT>
7.12

$$$$
>  <COMPOUND>
Cc1c(-c2ccccc2F)nc(N)c2nc(Cc3ccccc3)nn12 [Example 3.6]

>  <PROPERTY_LABEL>
pIC50

>  <QUANTITATIVE_READOUT>
8.19

$$$$
>  <COMPOUND>
Cc1c(-c2ncco2)nc(N)n2nc(CCN3CCn4c(cnc4C4CCC4)C3)nc12 [Example 1.11]

>  <PROPERTY_LABEL>
pIC50

>  <QUANTITATIVE_READOUT>
8.44

$$$$

Proceeding to the next compound to report its pIC50.
What pIC50 value was documented for this compound, Cc1c(-c2ncco2)nc(N)c2nc(Cc3ccc(C(C)(C)O)cc3)nn12 [Example 6.7] ?
7.80
